Target System: human GABAA α2β2γ1 receptor (Homo sapiens (Human), UniProt P47869+Q8N1C3)
Assay Name: Radioligand binding assay for γ1-containing GABAA subtypes, [3H]RO7239181 competition (α2β2γ1)
Experimental Context: Ki h-GABAA α2β2γ1, displacement of [3H]RO7239181, membranes of HEK293F cells expressing human receptors, means of two determinations
Property Label: log10(Ki) (log10 of the value in nM)
Base-10 log of Ki, unit nM.

Entry under test: "C[C@@H]1N=C(c2ncccc2F)c2c(ccc(C(F)(F)F)c2Cl)-n2nc(C(=O)N3CC[C@H](F)C3)nc21" . Its log10(Ki) was 1.96

"C[C@@H]1N=C(c2ncccc2F)c2c(ccc(C(F)(F)F)c2Cl)-n2nc(C(=O)N3CC(OC(F)F)C3)nc21" has a reported log10(Ki) of 1.46

For reference, reported log10(Ki) for "C[C@@H]1N=C(c2ncccc2F)c2c(ccc(C(F)(F)F)c2Cl)-n2cc(C(=O)NC[C@@H](C)O)nc21" stands at 1.78

For record C[C@@H]1N=C(c2c(F)cccc2F)c2c(ccc(C(F)(F)F)c2Cl)-n2nc(NC(=O)N3C4CC3CS(=O)(=O)C4)nc21 (single isomer, unassigned) the listed log10(Ki) is 1.29

The compound "CO[C@H]1CCN(C(=O)c2nc3n(n2)-c2ccc(Cl)c(Cl)c2C(c2ncccc2F)=N[C@H]3C)C1" showed log10(Ki) equal to 1.84

The recorded log10(Ki) for entry "C[C@@H]1N=C(c2c(F)cccc2F)c2c(ccc(Cl)c2Cl)-n2nc(S(N)(=O)=O)nc21" equals 1.28

For "C[C@@H]1N=C(c2c(F)cccc2F)c2c(ccc(Cl)c2Cl)-n2nc(C(=O)N3CC4(COC4)C3)nc21" the compound record lists log10(Ki) as 0.52

log10(Ki) recorded for this compound, "C[C@@H]1N=C(c2c(F)cccc2F)c2c(ccc(C(F)(F)F)c2Cl)-n2c(CO)cnc21" , is 1.53

// sample "C[C@@H]1N=C(c2c(F)cccc2F)c2c(ccc(Cl)c2Cl)-n2nc(C(=O)NCC(F)F)nc21" , its log10(Ki) was 0.85

Kindly note the recorded log10(Ki) for "COCc1cn2c(n1)CN=C(c1c(F)cccc1F)c1c-2ccc(Cl)c1Cl" , which is 0.98

Form field log10(Ki), entry "COC1CN(C(=O)c2cn3c(n2)CN=C(c2ccccc2F)c2c-3ccc(Cl)c2Cl)C1" : 1.40

log10(Ki) for "C[C@@H]1N=C(c2c(F)cccc2F)c2c(ccc(Cl)c2Cl)-n2ncnc21" is 0.78

Entry "Cc1nc2n(n1)-c1ccc(C(F)(F)F)c(Cl)c1C(c1ncccc1F)=N[C@H]2C" ; log10(Ki) = 1.85

Lab note: measured log10(Ki) of "O=C(c1nc2n(n1)-c1ccc(Cl)c(Cl)c1C(c1c(F)cccc1F)=NC2)N1CC(O)C1" was 0.50

Given item "[2H]C([2H])([2H])OC1CN(C(=O)c2nc3n(n2)-c2ccc(Cl)c(Cl)c2C(c2c(F)cccc2F)=N[C@H]3C)C1" , the value recorded as its log10(Ki) is 0.41

* * *

Target System: human GABAA α5β2γ1 receptor (Homo sapiens (Human), UniProt P31644+Q8N1C3)
Assay Name: Radioligand binding assay for γ1-containing GABAA subtypes, [3H]RO7239181 competition (α5β2γ1)
Property Label: pKi
Hey, just a heads up that pKi is the negative log base 10 of the concentration in molar.

Noted pKi for "C[C@@H]1N=C(c2c(F)cccc2F)c2c(ccc(C(F)(F)F)c2Cl)-n2nc(C(=O)N3CCS(=O)(=O)CC3)nc21" , tested on human GABAA α5β2γ1 receptor (Homo sapiens (Human), UniProt P31644+Q8N1C3): 8.43

The recorded pKi with human GABAA α5β2γ1 receptor (Homo sapiens (Human), UniProt P31644+Q8N1C3) for "C[C@@H]1N=C(c2c(F)cccc2F)c2c(ccc(Cl)c2Cl)-n2nc(C(=O)N3CC[C@@H](F)C3)nc21" was 8.79

Entry "CO[C@H]1CCN(C(=O)c2nc3n(n2)-c2ccc(Cl)c(Cl)c2C(c2ncccc2F)=N[C@H]3C)C1" , human GABAA α5β2γ1 receptor (Homo sapiens (Human), UniProt P31644+Q8N1C3) data, pKi value: 8.21

Readout pKi for "C[C@@H]1N=C(c2c(F)cccc2F)c2c(ccc(Cl)c2Cl)-n2nc(C(=O)N3CC(O)C3)nc21" , test system human GABAA α5β2γ1 receptor (Homo sapiens (Human), UniProt P31644+Q8N1C3), was 8.84

// returns pKi for "[2H]C([2H])([2H])NC(=O)c1nc2n(n1)-c1ccc(Cl)c(Cl)c1C(c1c(F)cccc1F)=N[C@H]2C" with human GABAA α5β2γ1 receptor (Homo sapiens (Human), UniProt P31644+Q8N1C3); value = 9.05

human GABAA α5β2γ1 receptor (Homo sapiens (Human), UniProt P31644+Q8N1C3) assay, compound "C[C@@H]1N=C(c2c(F)cccc2F)c2c(ccc(Cl)c2Cl)-n2nc(C(=O)N3CC(C#N)C3)nc21" , recorded pKi = 9.13

# value of pKi, human GABAA α5β2γ1 receptor (Homo sapiens (Human), UniProt P31644+Q8N1C3), item "C[C@@H]1N=C(c2c(F)cccc2F)c2c(ccc(Cl)c2Cl)-n2nc(C(=O)N3CC4(CCCO4)C3)nc21" = 8.59

# credit: patent US12365687B2
